system: P388 leukemia ip, CD2F1 mice, survival T/C; test: NCI In Vivo Anticancer Drug Screen. Data for tumor model P388 Leukemia (intraperitoneal) in CD2F1 (CDF1) mice; conditions: endpoint: median survival time; dose: 12.5 mg/kg/injection; schedule: Q01DX009 (ip); vehicle: other; higher = longer survival
Toxic doses and inconclusive results are not listed.
QUANTITY_MEASURED: T/C

Worked examples, 3 compounds total:
# COMPOUND, T/C
records = [
    ("COc1cc2ccc(C(C)=O)c(O)c2cc1OC", "92 % of control"),
    ("CC12CCCCC1=CC(=O)CC2 (centres undefined)", "97 % of control"),
    ("Cc1ccc(S(=O)(=O)N/N=C/c2ccc(O)c(O)c2)cc1", "112 % of control"),
]

Turning now to a further compound:
Find the recorded T/C belonging to NC(CSC(c1ccccc1)(c1ccccc1)c1ccc(CBr)cc1)C(=O)O (centres undefined) and report it.
120 % of control

* * *

test system: P388 leukemia ip, CD2F1 mice, survival T/C; assay: NCI In Vivo Anticancer Drug Screen. Data for tumor model P388 Leukemia (intraperitoneal) in CD2F1 (CDF1) mice; conditions: endpoint: median survival time; dose: 100.0 mg/kg/injection; schedule: Q01DX009 (ip); vehicle: Klucel (hydroxypropylcellulose) (HPC); higher = longer survival
Inconclusive results and toxic doses are left out.
T/C listing for selected compounds.

# COMPOUND, T/C
rows = [
    ("O=C(O)c1ccc([N+](=O)[O-])o1", "96 % of control"),
    ("CC(C)=NOCc1ccccc1", "98 % of control"),
    ("Cc1cccc(Nc2n[nH]c(N)n2)c1", "94 % of control"),
    ("O=[N+]([O-])c1ccc([Se]CCO)c([N+](=O)[O-])c1", "99 % of control"),
    ("CSc1cnc(N)s1", "104 % of control"),
]

Find the recorded T/C belonging to O=c1oc2c(Br)cccc2cc1-c1ccc(Br)c2ccccc12 and report it.
97 % of control

Find the recorded T/C belonging to Cc1nn(C(=O)c2ccncc2)c(C)c1N=Nc1ccc([N+](=O)[O-])cc1 and report it.
93 % of control

Find the recorded T/C belonging to Cc1ccc(N2C(=O)CC3(CCCCC3)C2=O)c(C)c1 and report it.
109 % of control

Find the recorded T/C belonging to CN(C)c1ccc(C(=N)Cc2ccc3ccccc3n2)cc1 and report it.
95 % of control

Find the recorded T/C belonging to Cc1ccc2nc(NC(=S)S)sc2c1 and report it.
87 % of control

Find the recorded T/C belonging to N#CCCN(C(=O)Nc1ccccc1)c1ccccc1 and report it.
107 % of control

Find the recorded T/C belonging to NS(=O)(=O)c1ccc(Nc2c3ccccc3nc3cc(Cl)ccc23)cc1 and report it.
86 % of control

Find the recorded T/C belonging to CC1(C)C(=O)N(Br)C(=O)N1Br and report it.
90 % of control

Find the recorded T/C belonging to O=C(Nc1ccc(Cl)c(Cl)c1)OCc1cccnc1 and report it.
97 % of control

* * *

test system: P388 leukemia ip, CD2F1 mice, survival T/C; test: NCI In Vivo Anticancer Drug Screen. Data for tumor model P388 Leukemia (intraperitoneal) in CD2F1 (CDF1) mice; conditions: endpoint: median survival time; dose: 1.56 mg/kg/injection; schedule: Q01DX009 (ip); vehicle: saline; higher = longer survival
Inconclusive results and toxic doses are left out.
QUANTITY_MEASURED: T/C

Find the recorded T/C belonging to CN(C)c1ccc(N=O)cc1 and report it.
110 % of control

Find the recorded T/C belonging to Nc1ccc(O)c(N)c1 and report it.
96 % of control

Find the recorded T/C belonging to O=C(CCCN1CCC(C(=O)c2ccc(F)cc2)CC1)c1ccc(F)cc1 and report it.
92 % of control

Find the recorded T/C belonging to COC(=O)OC(C#N)c1ccccc1[N+](=O)[O-] (stereo not given) and report it.
88 % of control

Find the recorded T/C belonging to CC[CH](C)[Sn](=[O])[CH](C)CC (stereo not given) and report it.
105 % of control

Entry source: PubChem BioAssay AID330
